Assay: Serum pharmacokinetics, stratum A
Type: in vivo, human
Details: human, serum, oral, 130 mg/m2, T MAX, stratum A, 130 mg/m^2, D1, median (range)
parameter measured: Tmax (h)
Reply with just the number (in h).

Quote Tmax reported for CC1(COc2ccc3c(c2)ncn3-c2ccc3cccc(N4CCC(N)CC4)c3n2)COC1 please. 2

###

Experiment: Serum pharmacokinetics, stratum A
Assay type: in vivo, human
Conditions: human, serum, oral, 100 mg/m2, C MAX, stratum A1 (whole tablets), 100 mg/m^2, D28, median (range)
parameter measured: Cmax (nM)
Give the value in nM but do not write nM after it.

Give me measured Cmax, please, for this compound: CC1(COc2ccc3c(c2)ncn3-c2ccc3cccc(N4CCC(N)CC4)c3n2)COC1 750

###

Experiment: Serum pharmacokinetics across all dosage levels
Format: in vivo
Conditions: human, oral, TMAX, median, across dosage levels
parameter measured: Tmax (h)
Hi! Could you send only the number? It should be in h, unit omitted.

Input CC1(COc2ccc3c(c2)ncn3-c2ccc3cccc(N4CCC(N)CC4)c3n2)COC1 [crenolanib] , output reported Tmax. 4

###

Test: Serum pharmacokinetics, stratum A
Assay type: in vivo, human
Conditions: human, serum, oral, 130 mg/m2, C MAX, stratum A, 130 mg/m^2, D28, median (range)
parameter measured: Cmax
I'd appreciate it if you wrote the number followed by its unit.

Give the measured Cmax for CC1(COc2ccc3c(c2)ncn3-c2ccc3cccc(N4CCC(N)CC4)c3n2)COC1 [crenolanib] 1110 nM

###

Assay: Serum pharmacokinetics, stratum A
Type: in vivo, human
Conditions: human, serum, oral, 170 mg/m2, T MAX, stratum A, 170 mg/m^2, D1, median (range)
parameter measured: Tmax (h)
Numbers only here, please. The scale is h.

Please supply the value of reported Tmax for the item CC1(COc2ccc3c(c2)ncn3-c2ccc3cccc(N4CCC(N)CC4)c3n2)COC1 [crenolanib] 4

###

Assay: Serum pharmacokinetics across all dosage levels
Format: in vivo
Conditions: human, oral, half-life, range, pediatric patients, across all dosage levels
parameter measured: half-life

# return recorded half-life for entry CC1(COc2ccc3c(c2)ncn3-c2ccc3cccc(N4CCC(N)CC4)c3n2)COC1 2.2 to 18.8 h

###

Experiment: Serum pharmacokinetics, stratum A
Assay type: in vivo, human
Conditions: human, serum, oral, 170 mg/m2, Half-life, stratum A, 170 mg/m^2, D28, median (range)
parameter measured: half-life (h)
Number only, in h; omit the unit.

Retrieve half-life measured for CC1(COc2ccc3c(c2)ncn3-c2ccc3cccc(N4CCC(N)CC4)c3n2)COC1 and print it. 7.2

###

Test: Serum pharmacokinetics, stratum A
Assay type: in vivo, human
Settings: human, serum, oral, 220 mg/m2, T MAX, stratum A, 220 mg/m^2, D1, median (range)
parameter measured: Tmax (h)
Give the value, in units of h, as a plain number.

Give me measured Tmax, please, for this molecule: CC1(COc2ccc3c(c2)ncn3-c2ccc3cccc(N4CCC(N)CC4)c3n2)COC1 4

###

Experiment: Serum pharmacokinetics, stratum A
Format: in vivo, human
Conditions: human, serum, oral, 100 mg/m2, AUC0–T (AUC0–24h), stratum A1 (whole tablets), 100 mg/m^2, D28, median (range)
parameter measured: AUC(0-t) (µM·h)
Value expressed in µM·h; do not type the unit.

For the molecule CC1(COc2ccc3c(c2)ncn3-c2ccc3cccc(N4CCC(N)CC4)c3n2)COC1 [crenolanib] , report AUC(0-t). 7.34

###

Assay: Serum pharmacokinetics, stratum A
Assay type: in vivo, human
Details: human, serum, oral, 220 mg/m2, C MAX, stratum A, 220 mg/m^2, D1, median (range)
parameter measured: Cmax (µM)
Please respond with the number in µM and leave the unit unwritten.

# return recorded Cmax for entry CC1(COc2ccc3c(c2)ncn3-c2ccc3cccc(N4CCC(N)CC4)c3n2)COC1 1.89

###

Experiment: Serum pharmacokinetics, stratum A
Assay type: in vivo, human
Settings: human, serum, oral, 130 mg/m2, Half-life, stratum A, 130 mg/m^2, D1, median (range)
parameter measured: half-life (h)
Answer in h, number only, no unit symbol.

Find the measured half-life of CC1(COc2ccc3c(c2)ncn3-c2ccc3cccc(N4CCC(N)CC4)c3n2)COC1 and report it. 7.3

###

Assay: Serum pharmacokinetics, stratum A
Assay type: in vivo, human
Settings: human, serum, oral, 170 mg/m2, T MAX, stratum A, 170 mg/m^2, D28, median (range)
parameter measured: Tmax

Identify measured Tmax corresponding to CC1(COc2ccc3c(c2)ncn3-c2ccc3cccc(N4CCC(N)CC4)c3n2)COC1 [crenolanib] 3 h

###

Assay: Serum pharmacokinetics, stratum A
Assay type: in vivo, human
Settings: human, serum, oral, 130 mg/m2, C MAX, stratum A, 130 mg/m^2, D1, median (range)
parameter measured: Cmax (nM)
Write the answer as a number in nM, unit excluded.

Output measured Cmax for this item: CC1(COc2ccc3c(c2)ncn3-c2ccc3cccc(N4CCC(N)CC4)c3n2)COC1 733

###

Experiment: Serum pharmacokinetics, stratum A
Format: in vivo, human
Details: human, serum, oral, 170 mg/m2, Half-life, stratum A, 170 mg/m^2, D1, median (range)
parameter measured: half-life (h)
Provide the reading as a plain figure in h.

Entry CC1(COc2ccc3c(c2)ncn3-c2ccc3cccc(N4CCC(N)CC4)c3n2)COC1 needs its half-life filled in; supply it. 8.5

###

Assay: Serum pharmacokinetics across all dosage levels
Type: in vivo
Details: human, oral, half-life, median, pediatric patients, across all dosage levels
parameter measured: half-life (h)
Write down the numeric answer in h and omit the unit.

Read off the recorded half-life for CC1(COc2ccc3c(c2)ncn3-c2ccc3cccc(N4CCC(N)CC4)c3n2)COC1 7.1

###

Experiment: Serum pharmacokinetics, stratum A
Assay type: in vivo, human
Settings: human, serum, oral, 100 mg/m2, T MAX, stratum A2 (crushed tablets), 100 mg/m^2, D1, median (range)
parameter measured: Tmax (h)
Give the value, in units of h, as a plain number.

Write down Tmax measured for item CC1(COc2ccc3c(c2)ncn3-c2ccc3cccc(N4CCC(N)CC4)c3n2)COC1 2

###

Test: Serum pharmacokinetics, stratum A
Assay type: in vivo, human
Details: human, serum, oral, 220 mg/m2, C MAX, stratum A, 220 mg/m^2, D28, median (range)
parameter measured: Cmax (nM)
Entry rule: numbers only, all in nM.

Indicate the recorded Cmax value for this molecule: CC1(COc2ccc3c(c2)ncn3-c2ccc3cccc(N4CCC(N)CC4)c3n2)COC1 2270

###

Experiment: Serum pharmacokinetics, stratum A
Type: in vivo, human
Details: human, serum, oral, 130 mg/m2, Half-life, stratum A, 130 mg/m^2, D28, median (range)
parameter measured: half-life (h)
Report the figure in h without appending any unit label.

Quote half-life reported for CC1(COc2ccc3c(c2)ncn3-c2ccc3cccc(N4CCC(N)CC4)c3n2)COC1 please. 6.1

###

Assay: Serum pharmacokinetics, stratum A
Type: in vivo, human
Details: human, serum, oral, 170 mg/m2, C MAX, stratum A, 170 mg/m^2, D1, median (range)
parameter measured: Cmax (nM)
Report the figure in nM without appending any unit label.

Quickly give me recorded Cmax for CC1(COc2ccc3c(c2)ncn3-c2ccc3cccc(N4CCC(N)CC4)c3n2)COC1 [crenolanib] 1240

###

Test: Serum pharmacokinetics, stratum A
Format: in vivo, human
Conditions: human, serum, oral, 100 mg/m2, AUC0–T (AUC0–24h), stratum A2 (crushed tablets), 100 mg/m^2, D28, median (range)
parameter measured: AUC(0-t) (µM·h)
State just the number; it will be interpreted in µM·h.

For CC1(COc2ccc3c(c2)ncn3-c2ccc3cccc(N4CCC(N)CC4)c3n2)COC1 , write its AUC(0-t). 6.95

###

Test: Serum pharmacokinetics, stratum A
Format: in vivo, human
Conditions: human, serum, oral, 220 mg/m2, T MAX, stratum A, 220 mg/m^2, D28, median (range)
parameter measured: Tmax (h)
Return type: number; implicit unit h.

For the molecule CC1(COc2ccc3c(c2)ncn3-c2ccc3cccc(N4CCC(N)CC4)c3n2)COC1 [crenolanib] , report Tmax. 2

###

Assay: CSF crenolanib disposition
Assay type: in vivo, human
Details: human, cerebrospinal fluid / serum (total), oral, 100 mg/m^2
parameter measured: Kp
Write the number on its own, no unit after it.

Given the compound CC1(COc2ccc3c(c2)ncn3-c2ccc3cccc(N4CCC(N)CC4)c3n2)COC1 [crenolanib] , write its reported Kp. 0.025

###

Assay: Serum pharmacokinetics, stratum A
Type: in vivo, human
Conditions: human, serum, oral, 220 mg/m2, Half-life, stratum A, 220 mg/m^2, D1, median (range)
parameter measured: half-life (h)
Return type: number; implicit unit h.

Tell me measured half-life for CC1(COc2ccc3c(c2)ncn3-c2ccc3cccc(N4CCC(N)CC4)c3n2)COC1 please. 6.75

###

Assay: Serum pharmacokinetics, stratum A
Type: in vivo, human
Settings: human, serum, oral, 100 mg/m2, Half-life, stratum A1 (whole tablets), 100 mg/m^2, D1, median (range)
parameter measured: half-life (h)
The figure you give is taken to be in h; do not add the unit.

Provide half-life value for the following compound: CC1(COc2ccc3c(c2)ncn3-c2ccc3cccc(N4CCC(N)CC4)c3n2)COC1 8.5
